# target entity: Spike protein, Beta (SARS-CoV-2 (Beta variant))
# assay remarks: ELONA
# test conditions: pH 7.4, room temperature, spike immobilized
pKd: −log10 of the molar value.
outcome measure: pKd

chain sequence: ATCTACGAATTCTCCGCCAAGATAGAGGGTGGGCCGCGGAGAATTCACTGC [M40 (truncated working aptamer)]
observed result: 9.56
//
chain sequence: AATGGATCCACATCTACGAGCTCGAACGCCCGGAGGAGACGGGGGCAGGGCGTGTTCACTGCAGACTTGACGAAGCT [K1 (truncated working aptamer)]
observed result: 10.47

###

# target entity: Spike protein, Alpha (SARS-CoV-2 (Alpha variant)) (UniProt P0DTC2)
# assay remarks: ELONA
# test conditions: pH 7.4, room temperature, spike immobilized
pKd: −log10 of the molar value.

chain sequence: AATGGATCCACATCTACGAGCTCGAACGCCCGGAGGAGACGGGGGCAGGGCGTGTTCACTGCAGACTTGACGAAGCT [K1 (truncated working aptamer)]
pKd: 10.47
//
chain sequence: ATCTACGAATTCTCCGCCAAGATAGAGGGTGGGCCGCGGAGAATTCACTGC [M40 (truncated working aptamer)]
pKd: 9.55
